Attribution: patent US10231954B2

- Test system: VEG-FR
- methodSummary: Kinase profiling VEG-FR
- Assay type: biochemical
- runParameters: 100 micromolar inhibitor concentration; 100 is no change
Decision: residual kinase activity, VEG-FR compared against 50; not below it gives T, below it gives F.

>>> label("CC(=O)Nc1nc2cc(O)ccc2s1")
"F"
>>> label("O=C(Nc1nc2ccc(O)cc2s1)c1ccccc1")
"F"
>>> label("COC(=O)c1cccc(C(=O)Nc2nc3cc(OC)ccc3s2)c1")
"T"
>>> label("COc1ccc2sc(NC(=O)c3cccc(C(N)=O)c3)nc2c1")
"T"
>>> label("O=C(Nc1nc2ccc(O)cc2s1)c1ccccn1")
"F"
>>> label("O=C(Nc1nc2ccc(C(F)(F)F)cc2s1)c1ccccc1")
"F"
>>> label("COC(=O)c1cccc(C(=O)Nc2nc3ccc(F)cc3s2)c1")
"T"
>>> label("O=C(Nc1nc2ccc(O)cc2s1)c1cccnc1")
"F"
>>> label("CC(=O)Nc1nc2ccc(C(F)(F)F)cc2s1")
"F"

* * *

- testedSystem: ABL (Homo sapiens, UniProt P00519)
- Sequence (P00519 whole entry, species assumed): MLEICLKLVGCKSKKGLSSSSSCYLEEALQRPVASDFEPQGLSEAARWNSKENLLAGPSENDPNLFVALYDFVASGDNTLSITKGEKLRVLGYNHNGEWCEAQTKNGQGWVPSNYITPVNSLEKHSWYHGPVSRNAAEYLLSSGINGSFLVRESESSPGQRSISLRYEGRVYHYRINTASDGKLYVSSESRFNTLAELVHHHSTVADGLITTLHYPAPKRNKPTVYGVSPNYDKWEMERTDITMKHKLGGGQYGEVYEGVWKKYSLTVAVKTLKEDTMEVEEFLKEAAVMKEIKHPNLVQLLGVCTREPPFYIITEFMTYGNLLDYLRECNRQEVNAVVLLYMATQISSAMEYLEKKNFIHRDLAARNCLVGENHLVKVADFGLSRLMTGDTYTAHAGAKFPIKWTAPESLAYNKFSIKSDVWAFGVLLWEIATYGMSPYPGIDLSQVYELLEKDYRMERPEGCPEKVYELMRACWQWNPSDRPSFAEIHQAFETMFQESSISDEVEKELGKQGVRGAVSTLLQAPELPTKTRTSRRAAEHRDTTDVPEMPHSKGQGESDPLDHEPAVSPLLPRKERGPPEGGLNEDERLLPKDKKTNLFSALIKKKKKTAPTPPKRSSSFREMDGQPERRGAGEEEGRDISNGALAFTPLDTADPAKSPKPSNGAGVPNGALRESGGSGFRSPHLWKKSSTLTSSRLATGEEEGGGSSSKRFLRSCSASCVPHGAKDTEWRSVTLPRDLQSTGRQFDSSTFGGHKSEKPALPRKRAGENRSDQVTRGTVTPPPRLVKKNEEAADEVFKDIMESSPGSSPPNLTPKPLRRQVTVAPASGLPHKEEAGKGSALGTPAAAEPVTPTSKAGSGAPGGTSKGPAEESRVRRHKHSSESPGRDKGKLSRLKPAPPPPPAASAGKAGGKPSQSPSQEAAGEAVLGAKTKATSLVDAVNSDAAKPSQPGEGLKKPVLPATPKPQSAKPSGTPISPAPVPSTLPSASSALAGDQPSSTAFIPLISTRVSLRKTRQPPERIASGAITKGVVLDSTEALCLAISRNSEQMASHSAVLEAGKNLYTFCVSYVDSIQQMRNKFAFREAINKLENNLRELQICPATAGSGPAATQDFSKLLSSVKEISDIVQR
- methodSummary: Kinase profiling ABL
- Format: biochemical
- runParameters: 100 micromolar inhibitor concentration; 100 is no change
Each entry gets f if its residual kinase activity, ABL stays under 80, and t if its residual kinase activity, ABL is 80 or above.

>>> label("O=C(Nc1nc2cc(O)ccc2s1)c1cccnc1")
"t"
>>> label("O=C(Nc1nc2cc(O)ccc2s1)c1ccccn1")
"f"
>>> label("O=C(Nc1nc2ccc(O)cc2s1)c1ccccn1")
"t"
>>> label("O=C(Nc1nc2cc(O)ccc2s1)c1ccncc1")
"t"
>>> label("CC(=O)Nc1nc2ccccc2s1")
"t"
>>> label("O=C(Nc1nc2ccc(O)cc2s1)c1ccccc1")
"f"
>>> label("O=C(Nc1nc2ccc(O)cc2s1)c1cccnc1")
"f"
>>> label("O=C(Nc1nc2ccc(O)cc2s1)c1ccncc1")
"f"

* * *

- testedSystem: HIPK3 (Homo sapiens)
- Sequence (Q9H422 whole entry, species assumed): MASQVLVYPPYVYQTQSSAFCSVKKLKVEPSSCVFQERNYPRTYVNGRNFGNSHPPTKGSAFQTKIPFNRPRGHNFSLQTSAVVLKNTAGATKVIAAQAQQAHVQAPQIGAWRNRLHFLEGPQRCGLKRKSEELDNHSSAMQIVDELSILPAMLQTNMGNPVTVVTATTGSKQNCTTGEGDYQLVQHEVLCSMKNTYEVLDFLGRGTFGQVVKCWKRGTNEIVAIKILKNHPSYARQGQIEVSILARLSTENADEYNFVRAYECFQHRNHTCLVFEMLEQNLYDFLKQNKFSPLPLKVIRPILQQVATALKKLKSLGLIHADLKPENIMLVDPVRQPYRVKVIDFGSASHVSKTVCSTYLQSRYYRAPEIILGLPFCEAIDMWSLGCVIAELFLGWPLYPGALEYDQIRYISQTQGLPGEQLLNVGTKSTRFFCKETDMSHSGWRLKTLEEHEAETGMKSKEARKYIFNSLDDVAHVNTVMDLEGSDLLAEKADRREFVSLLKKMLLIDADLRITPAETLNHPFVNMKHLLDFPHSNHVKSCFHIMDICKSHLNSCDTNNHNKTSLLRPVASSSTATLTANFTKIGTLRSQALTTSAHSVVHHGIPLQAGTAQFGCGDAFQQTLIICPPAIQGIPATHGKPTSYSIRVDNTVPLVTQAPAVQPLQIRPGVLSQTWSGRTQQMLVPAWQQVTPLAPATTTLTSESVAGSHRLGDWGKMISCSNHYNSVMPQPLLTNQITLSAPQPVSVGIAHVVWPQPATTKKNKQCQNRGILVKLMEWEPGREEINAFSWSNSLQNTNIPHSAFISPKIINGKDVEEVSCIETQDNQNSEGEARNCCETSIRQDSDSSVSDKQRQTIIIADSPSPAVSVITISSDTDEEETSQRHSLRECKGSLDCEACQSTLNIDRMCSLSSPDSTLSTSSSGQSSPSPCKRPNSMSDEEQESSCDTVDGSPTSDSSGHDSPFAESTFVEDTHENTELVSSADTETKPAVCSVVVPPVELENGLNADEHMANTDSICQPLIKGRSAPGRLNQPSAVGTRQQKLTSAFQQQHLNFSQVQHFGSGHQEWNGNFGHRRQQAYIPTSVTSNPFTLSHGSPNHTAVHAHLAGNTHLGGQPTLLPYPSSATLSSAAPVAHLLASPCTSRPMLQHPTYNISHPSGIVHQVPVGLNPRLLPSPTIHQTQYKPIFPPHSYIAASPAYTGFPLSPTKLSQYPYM
- methodSummary: Kinase profiling HIPK3
- Assay type: biochemical
- runParameters: 100 micromolar inhibitor concentration; 100 is no change; read-out: residual kinase activity, HIPK3
Cut-off 70% on remaining activity at 100 µM: below means 1, at or above means -1.

>>> label("CC(=O)Nc1nc2cc(F)ccc2s1")
1
>>> label("COc1ccc2sc(NC(C)=O)nc2c1")
-1
>>> label("CC(=O)Nc1nc2ccc(O)cc2s1")
1
>>> label("CC(=O)Nc1nc2ccc(C#N)cc2s1")
1
>>> label("CC(=O)Nc1nc2cc(C(F)(F)F)ccc2s1")
-1

* * *

- testedSystem: BRSK2 (Homo sapiens)
- Sequence (Q8IWQ3 whole entry, species assumed): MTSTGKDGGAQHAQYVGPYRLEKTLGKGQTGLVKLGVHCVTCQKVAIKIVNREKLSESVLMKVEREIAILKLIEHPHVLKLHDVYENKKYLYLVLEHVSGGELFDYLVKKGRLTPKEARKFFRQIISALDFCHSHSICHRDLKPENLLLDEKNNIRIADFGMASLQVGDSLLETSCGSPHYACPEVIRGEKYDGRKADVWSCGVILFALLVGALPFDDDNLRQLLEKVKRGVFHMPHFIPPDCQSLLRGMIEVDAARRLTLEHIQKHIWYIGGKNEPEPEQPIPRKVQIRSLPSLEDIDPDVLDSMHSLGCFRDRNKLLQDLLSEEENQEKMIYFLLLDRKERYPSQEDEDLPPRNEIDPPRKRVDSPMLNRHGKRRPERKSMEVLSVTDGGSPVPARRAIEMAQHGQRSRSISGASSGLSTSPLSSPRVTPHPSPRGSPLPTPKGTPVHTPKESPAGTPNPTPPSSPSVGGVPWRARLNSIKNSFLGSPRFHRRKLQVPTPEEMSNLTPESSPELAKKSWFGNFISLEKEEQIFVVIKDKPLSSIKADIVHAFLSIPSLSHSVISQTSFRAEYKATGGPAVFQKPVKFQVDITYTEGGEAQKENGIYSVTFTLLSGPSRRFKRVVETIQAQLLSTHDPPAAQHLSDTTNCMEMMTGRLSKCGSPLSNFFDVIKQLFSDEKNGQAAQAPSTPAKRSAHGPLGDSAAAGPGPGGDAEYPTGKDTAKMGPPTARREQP
- methodSummary: Kinase profiling BRSK2
- Assay type: biochemical
- runParameters: 100 micromolar inhibitor concentration; 100 is no change; read-out: residual kinase activity, BRSK2
Items are presented alongside their recorded remaining activity at 100 µM.
endpointName: remaining activity at 100 µM (%)

>>> resultnumber("CC(=O)Nc1nc2cc(F)ccc2s1")
77
>>> resultnumber("CC(=O)Nc1nc2ccc(O)cc2s1")
22
>>> resultnumber("CC(=O)Nc1nc2cc(C(F)(F)F)ccc2s1")
98
>>> resultnumber("CC(=O)Nc1nc2ccc(C(F)(F)F)cc2s1")
64
>>> resultnumber("CC(=O)Nc1nc2ccc(C#N)cc2s1")
67
>>> resultnumber("COc1ccc2sc(NC(C)=O)nc2c1")
95
